Where do these numbers come from? They come from patent US20110020369A1.

# Assay target: cynomolgus TSLPR on Ba/F3-cTSLPR-cIL7Ra cells (cynomolgus monkey)
# Test details: cell-based or functional assay
Property measured: IC50 Assay I, Ba/F3-cyTSLPR proliferation (µg/mL)
Answers are plain numbers, in µg/mL.

Prompt line: Consider the binder mouse antibody 49A5 (antibody, mouse IgG1, V domains shown, Mouse IgG1/kappa from hybridoma; also called m49A5; LB55.49A5.2F9) VH: QVQLKQSGPGLVQPSQSLSITCTVSGFSLTTYGVHWVRQSPGKGLEWLGVIWRGGNTAYNPAFMSRLSITKDNSKSQVFFKMNSLQADDTAIYHCAKKSYYGYHAMGYWGQGTSVTVSS VL: DIQMTQTTSSLSASLGDRVTINCRASQDISNYLNWYQQNPDGTVKLLIYYTSRLHSGVPSRFSGSGSGTDYSLTISNLEQEDIATYFCQQANTLPWTFGGGTKLEIKR and give its recorded IC50 Assay I, Ba/F3-cyTSLPR proliferation.
Response line: 0.202
